Field: EC50 CreLuc hGIPR 0.5% hP. Provide a value for each of the binders that follow.
# experimental-system: T1, human GIP receptor (human, UniProt P48546 22-466)
# T1 sequence (looked up): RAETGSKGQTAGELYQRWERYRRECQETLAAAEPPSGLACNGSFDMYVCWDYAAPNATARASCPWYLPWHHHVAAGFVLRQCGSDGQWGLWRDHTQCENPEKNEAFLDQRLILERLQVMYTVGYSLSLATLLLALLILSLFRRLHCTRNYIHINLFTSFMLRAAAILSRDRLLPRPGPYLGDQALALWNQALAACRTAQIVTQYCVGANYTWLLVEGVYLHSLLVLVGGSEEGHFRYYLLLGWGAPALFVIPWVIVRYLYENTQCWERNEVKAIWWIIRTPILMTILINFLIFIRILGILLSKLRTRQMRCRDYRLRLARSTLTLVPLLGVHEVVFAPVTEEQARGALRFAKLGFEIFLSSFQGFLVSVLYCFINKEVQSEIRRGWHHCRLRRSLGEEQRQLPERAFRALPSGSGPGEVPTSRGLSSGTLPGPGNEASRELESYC
# protocol-notes: cell-based or functional assay
Starred links: 1 amine or outer side, 2 acyl side, 3 side chain; linkers in the order of their positions; H or OH if unused. Non-standard residues stand in square brackets, D forms with d. Groups on a side chain read outwards from the residue. No end group written: not given here. *: point of attachment. C18 diacid = O=C(O)CCCCCCCCCCCCCCCCC(=O)*; γGlu = O=C(O)[C@H](CCC(=O)[*:2])N[*:1]; εLys = N[C@@H](CCCCN[*:1])C(=O)[*:2]; Aib = CC(C)(N)C(=O)O
Please provide the amount together with its unit, number first.

Use these answered entries as a reference point.
[[record]]
binder = "Y[Aib]EGTFTSDYSI[Aib]LEKQAQ[Aib]AFVEWLIKGGPSSYASLRHYYNWLTRQRY-NH2 (not fully specified (residue 28)) [Compound 126]"
endpoint_label = "EC50 CreLuc hGIPR 0.5% hP"
endpoint_result = "0.1 nM"

[[record]]
binder = "YXEGTFTSDYSIXLDKQAQXAFVEWLIKGGPSSGASLRHYYNWLTRQRY (Aib at 2, 13, 20; K28 side chain: C20DA-gGlu-gGlu-gGlu-gGlu-gGlu-gGlu-eLys; C-terminal NH2) [Compound 128]"
endpoint_label = "EC50 CreLuc hGIPR 0.5% hP"
endpoint_result = "0.11 nM"


Query binder follows.
Query block: Let me know recorded EC50 CreLuc hGIPR 0.5% hP for Y[Aib]EGTFTSDYSI[Aib]LEKQAQ[Aib]AFVQWLIK([εLys-γGlu-γGlu-γGlu-γGlu-γGlu-C18 diacid])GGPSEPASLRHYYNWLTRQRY-NH2 [Compound 148] , thanks.
Result block: 0.07 nM
